# assayInfo: gradient 5% acetonitrile 3 min, to 50% in 2 min, to 85% in 15 min, held 3 min, 100 µL/min
# measurementContext: column: Zorbax Extend-C18 2.1 x 50 mm; eluents: water / acetonitrile, 0.1% formic acid
experimentalReadout: RP-LC retention time (s)

These solved cases illustrate the format of a correct answer.
INSERT INTO results (compound, testresult) VALUES
  ('O=C(Nc1nc(-c2ccc([N+](=O)[O-])cc2)cs1)c1ccc(COc2c(F)c(F)cc(F)c2F)o1', 1190),
  ('Cn1ccc2c(cc(C(=O)NCCCc3ccccc3)n2C)c1=O', 736),
  ('O=C(NCCc1csc(-c2ccccc2)n1)[C@H]1CCCN1C(=O)c1ccco1', 747),
  ('CC(NC(=O)c1ccccc1F)C(=O)N1CCN(c2ccccn2)CC1 (stereo unspecified)', 574),
  ('c1ccc(-n2ccnc2SCc2nc(-c3ccc4c(c3)OCO4)no2)cc1', 790);

I. Cc1ccc(N2C(=O)N(Cc3ccccc3)S(=O)(=O)c3cccnc32)cc1
II. O=C(Nc1ccc2c(c1)OCCO2)N1CCCC(c2nn[nH]n2)C1 (stereo unspecified)
## Input Between item I and item II , which reported RP-LC retention time is smaller? Returns: label corresponding to the selected item.
## Output II

I. Cc1nc(CCNC(=O)C2CCN(S(=O)(=O)c3ccc(C4CCCCC4)cc3)CC2)cs1
II. CN(CCCC(=O)O)S(=O)(=O)c1ccc(N)cc1
## Input So which one has the bigger RP-LC retention time here, I or II ? Returns: label corresponding to the selected item.
## Output I
(I: 981 s, II: 598 s)

1. Cc1ccc2c(NCc3ccc(Cl)cc3)c(-c3nc(C)no3)cnc2n1
2. Cc1ccc(-c2noc(Cn3c(=O)n(-c4ccccc4C)c(=O)c4sccc43)n2)cc1C
## Input So which one has the bigger RP-LC retention time here, 1 or 2 ? Returns: label corresponding to the selected item.
## Output 2

P. O=C1[C@H]2CN(Cc3ccccc3)C[C@H]2C(=O)N1CCc1ccccc1
Q. COCCc1noc(-c2nc(-c3ccc(C)cc3)no2)n1
## Input Between item P and item Q , which reported RP-LC retention time is smaller? Returns: label corresponding to the selected item.
## Output P

P. O=C(NCC1CCCO1)C1CCN(C(=O)c2ncn3c2COC(c2ccc(F)cc2)C3)CC1 (stereo unspecified)
Q. C#C[C@]1(O)CCC2C3CCC4=CC(=O)CCC4C3C(=C)CC21CC (stereo partly specified)
## Input So which one has the bigger RP-LC retention time here, P or Q ? Returns: label corresponding to the selected item.
## Output Q
(Q: 991 s, P: 658 s)

I. CCN1C(=O)NC(c2cccc(F)c2)C2=C1CN(CCC(=O)N1CCCC1)C2=O (stereo unspecified)
II. CCOC(=O)c1noc2ncnc(N3CCc4ccccc4C3)c12
## Input So which one has the bigger RP-LC retention time here, I or II ? Returns: label corresponding to the selected item.
## Output II
(II: 1010 s, I: 606 s)

I. O=S(=O)(CCOc1ccccc1)NCc1ccccc1
II. CCCn1c(=O)c(C)nc2cc(-c3noc(-c4cccc(OC)c4OC)n3)ccc21
## Input So which one has the bigger RP-LC retention time here, I or II ? Returns: label corresponding to the selected item.
## Output II
(II: 1140 s, I: 674 s)

I. O=C1[C@H]2CN(Cc3cccc(F)c3F)C[C@H]2C(=O)N1Cc1ccc2c(c1)OCO2
II. CN(C(=O)Cn1nc2n(c1=O)CCCC2)c1ccccc1
## Input So which one has the bigger RP-LC retention time here, I or II ? Returns: label corresponding to the selected item.
## Output I
